The values you see were collected from PubChem BioAssay (NCI).

Recorded growth by entry
# System: HOP-62 NSCLC
# ASSAY_DETAILS: NCI-60 one-dose screen, 48 h (100 = growth as untreated, 0 = no growth, -100 = all killed)
# CONDITION_DETAILS: 10 µM
About 83,000 compounds went through this panel and 20% of them were active in at least one assay; those are over-represented in the sample as a whole.
The answer is to be given in %; state only the numeric part.

Solved cases below.
compound="CC12OOC(C)(OO1)C2CCC(=O)OCCNc1ccnc2cc(Cl)ccc12 (stereo not given)" measured_quantity=growth value_observed=96.8
compound=O=C(/C=C/c1ccc(Cl)cc1Cl)c1nc2ccccc2n1Cc1ccc(F)cc1 measured_quantity=growth value_observed=58.2
compound=CCOP(=O)(CC(F)(F)C(F)(F)F)OCC measured_quantity=growth value_observed=90.9
compound=Cc1ccc2[nH]c(=S)n(-c3ccc(F)cc3)c(=O)c2c1 measured_quantity=growth value_observed=96.3
compound=CCC[Se]C(=O)c1ccc(C(=O)[Se]CCC)s1 measured_quantity=growth value_observed=-77.7

Challenge: Enter growth (test system HOP-62 NSCLC) for CC1=C(C=O)C2=C(C)C3(CC3)[C@@](C)(O)C(=O)C2=C1
Response given: 37.5

Challenge: Fill: growth (HOP-62 NSCLC) for this compound COC(=O)C[C@](O)(CCC(C)C)C(=O)O[C@H]1C(OC)=C[C@@]23CCCN2CCc2cc4c(cc2[C@@H]13)OCO4
Response given: 4.64

Challenge: # assay system HOP-62 NSCLC: give growth of CC12CCC3(CCC(=O)NCCCNc4ccnc5cc(Cl)ccc45)[C@@](C)(OO[C@]3(C)O1)O2
Response given: -6.39

Challenge: Report value only: growth, HOP-62 NSCLC, CC(C)N=C([Se])NC(=O)c1ccccc1
Response given: 8.36

Challenge: Give growth; test system HOP-62 NSCLC; compound COc1cc(OC)c(S(=O)(=O)N(CCCl)CCCl)cc1C(=O)/C=C/c1cc(OC)c(OC)c(OC)c1
Response given: -5.79
